target: muscarinic receptor; experiment: Inhibition of 3H-QNB binding (QNB receptor binding assay); details: inhibition of 3H-QNB binding
pIC50: −log10 of the molar value.
Give pIC50 for every item shown.

Ask: State the recorded pIC50 for this entry: CN(C)CC(Oc1ccc(Cl)cc1Cl)C1(O)CCCCC1 (centres unmarked)
Result: < 5.00

Ask: What about this compound? CN(C)CC(Oc1ccc(Cl)cc1)C1(O)CCCCC1 (centres unmarked)
Result: < 5.00
